Tested on: BSR cells, Bluetongue virus CPE, ATP luminescence, 72 h
Experiment: inhibitors of Bluetongue virus cytopathic effect, confirmation, arbovirus, BSR cells (AID 1250)

{"columns": ["compound", "tested_on", "IC50"],
 "data": [
  ["COC(=O)c1ccccc1NC(=O)CN1CCC(NC(=O)c2ccccc2C)CC1", "BSR cells, Bluetongue virus CPE, ATP luminescence, 72 h", "1.45 µM"],
  ["COc1ccc(/C=C/C(=O)Nc2ccccc2C(=O)O)cc1OC", "BSR cells, Bluetongue virus CPE, ATP luminescence, 72 h", "4.78 µM"],
  ["COc1ccc(NC(=O)c2c[nH]n3c(=O)cc(C4CCN(C(=O)OC(C)(C)C)CC4)nc23)cc1Cl", "BSR cells, Bluetongue virus CPE, ATP luminescence, 72 h", "12.2 µM"],
  ["Cc1csc(NC(=O)c2c(O)c3c(n(CC(C)C)c2=O)CCCC3)n1", "BSR cells, Bluetongue virus CPE, ATP luminescence, 72 h", "4.9 µM"],
  ["O=C(/C=C/c1cccs1)Nc1scc(-c2ccccc2)c1C(=O)O", "BSR cells, Bluetongue virus CPE, ATP luminescence, 72 h", "6.24 µM"],
  ["CCOc1ccc(-c2cc3nc(C4CCN(C(=O)OC(C)(C)C)CC4)c(C(=O)O)cn3n2)cc1", "BSR cells, Bluetongue virus CPE, ATP luminescence, 72 h", "19.8 µM"],
  ["CC1(c2ccc([N+](=O)[O-])cc2)CC(C)(C)N(C(=O)c2ccccc2)c2ccccc21 (stereo not drawn)", "BSR cells, Bluetongue virus CPE, ATP luminescence, 72 h", "9.68 µM"],
  ["O=c1[nH]n2c(=O)c3c([nH]c2c1N=Nc1cccc(Cl)c1)CCCC3", "BSR cells, Bluetongue virus CPE, ATP luminescence, 72 h", "18.5 µM"],
  ["Cc1nn(-c2ccccc2)c(Cl)c1/C=N/Nc1ccc(Cl)c(C(=O)O)c1", "BSR cells, Bluetongue virus CPE, ATP luminescence, 72 h", "14.5 µM"],
  ["CC(C)Sc1nsc2nc(=O)c(/C=C3\\C=Nc4ccccc43)c(N)n12", "BSR cells, Bluetongue virus CPE, ATP luminescence, 72 h", "10.3 µM"],
  ["Cc1cc(C)c2cc(CN(Cc3cccnc3)C(=O)c3ccc(F)cc3)c(Cl)nc2c1", "BSR cells, Bluetongue virus CPE, ATP luminescence, 72 h", "0.416 µM"],
  ["CC(=O)Nc1cccc(Oc2ncnc3scc(-c4ccccc4)c23)c1", "BSR cells, Bluetongue virus CPE, ATP luminescence, 72 h", "15.6 µM"],
  ["C=CCn1c(CNC(=O)c2cccs2)nnc1SCc1ccc(Cl)cc1Cl", "BSR cells, Bluetongue virus CPE, ATP luminescence, 72 h", "11 µM"],
  ["Cc1nc(CS(=O)c2ccc(Cl)cc2)cc(NCc2ccc(Cl)cc2Cl)n1 (stereo not drawn)", "BSR cells, Bluetongue virus CPE, ATP luminescence, 72 h", "9.42 µM"],
  ["CC(C(=O)Nc1ccccc1-c1ccccc1)N1CCN(S(=O)(=O)c2ccccc2)CC1 (stereo not drawn)", "BSR cells, Bluetongue virus CPE, ATP luminescence, 72 h", "1.4 µM"],
  ["Cc1ccc(-c2csc(NC(=O)c3cccs3)n2)cc1", "BSR cells, Bluetongue virus CPE, ATP luminescence, 72 h", "5 µM"],
  ["O=C(O)CSc1cc(C(=O)c2ccccc2O)cn2c(=O)c3c(-c4ccccc4)csc3nc12", "BSR cells, Bluetongue virus CPE, ATP luminescence, 72 h", "14.1 µM"],
  ["O=c1oc(-c2cc3ccccc3o2)nc2sc3c(c12)CCCC3", "BSR cells, Bluetongue virus CPE, ATP luminescence, 72 h", "4.59 µM"],
  ["O=C(CSc1nc(-c2ccccc2)nc2c1Cc1ccccc1O2)Nc1ccc(C(=O)O)cc1", "BSR cells, Bluetongue virus CPE, ATP luminescence, 72 h", "17.5 µM"],
  ["N#Cc1sc2nc(-c3cccs3)cc(-c3ccc(F)cc3)c2c1N", "BSR cells, Bluetongue virus CPE, ATP luminescence, 72 h", "2.28 µM"],
  ["O=C(/C=C/c1ccco1)Nc1sc2c(c1C(=O)O)CCC2", "BSR cells, Bluetongue virus CPE, ATP luminescence, 72 h", "17 µM"],
  ["O=C(Nc1ccccc1)Nc1snnc1C(=O)Nc1cccc(O)c1", "BSR cells, Bluetongue virus CPE, ATP luminescence, 72 h", "19 µM"],
  ["CC(C)(C)n1nnnc1C(c1ccc(C(F)(F)F)cc1)N(Cc1ccc(F)cc1)Cc1ccco1 (stereo not drawn)", "BSR cells, Bluetongue virus CPE, ATP luminescence, 72 h", "20.5 µM"]
]}
